Just for reference, ChEMBL document CHEMBL3779801 is where these values come from.

- Assay Summary: Metabolic stability in mouse liver microsomes assessed as parent compound remaining at 0.5 uM incubated for 10 mins
- Type: ADME
- Assay Context: read-out: Stability
Assay Readout: remaining at 10 min, 0.5 µM (%)
The response must be a number in % with no trailing unit.

Annotate the molecule Cc1ccncc1-c1cccc2c1ncn2-c1ccccn1 with its measured remaining at 10 min, 0.5 µM.
33

Annotate the molecule Cc1ccncc1-c1cccc2c1cnn2-c1ccc(F)cc1 with its measured remaining at 10 min, 0.5 µM.
11

Annotate the molecule Cc1ccncc1-c1cccc2c1ncn2-c1nccs1 with its measured remaining at 10 min, 0.5 µM.
16

Annotate the molecule Cc1ccncc1-c1cccc2c1ncn2CC(F)(F)F with its measured remaining at 10 min, 0.5 µM.
66
